Each entry below carries its reported log10(IC50).
Biological target: recombinant matrilysin (PUMP-1) (Homo sapiens)
Sequence (P09237 95-267): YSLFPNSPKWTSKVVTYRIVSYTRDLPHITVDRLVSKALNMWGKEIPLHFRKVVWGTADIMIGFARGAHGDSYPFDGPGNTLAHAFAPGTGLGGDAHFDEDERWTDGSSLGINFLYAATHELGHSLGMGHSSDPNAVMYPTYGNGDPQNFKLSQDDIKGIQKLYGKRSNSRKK
Test: Inhibition of recombinant matrilysin (PUMP-1, MMP-7), 14C-acetylated casein
Conditions: 37° C., 16 hours, pH 7.6; read-out: In vitro inhibitory activity IC50, Matrilysin (MMP-7)
observable: log10(IC50) (log10 of the value in nM)

compound: CC(C)C[C@@H](C(=O)N[C@H](C(=O)NC(c1ccccn1)c1ccccn1)C(C)(C)C)[C@H](O)C(=O)NO
log10(IC50): 1.30
--
compound: CC(C)C[C@@H](C(=O)N[C@H](C(=O)NC(c1ccccc1)c1ccccc1F)C(C)(C)C)[C@H](O)C(=O)NO (stereo partly shown)
log10(IC50): 0.95
--
compound: CC(C)C[C@@H](C(=O)N[C@H](C(=O)NC(c1ccccc1)c1ccccc1)C(C)(C)C)[C@H](O)C(=O)NO
log10(IC50): 0.60
--
compound: CC(C)(C)[C@H](NC(=O)[C@H](CCCc1ccccc1)[C@H](O)C(=O)NO)C(=O)NC(c1ccccc1)c1ccccc1
log10(IC50): 3.00
--
compound: C=CC[C@H](C(=O)NO)[C@@H](CCCCCCCC)C(=O)N[C@H](C(=O)NC(c1ccccc1)c1ccccc1)C(C)(C)C
log10(IC50): 2.60
--
compound: CC(C)C[C@@H](C(=O)N[C@H](C(=O)NC(c1ccccc1)c1ccc(Cl)cc1)C(C)(C)C)[C@H](O)C(=O)NO (stereo partly shown)
log10(IC50): 1.00
--
compound: CC(C)C[C@@H](C(=O)N[C@H](C(=O)NC1c2ccccc2-c2ccccc21)C(C)(C)C)[C@H](O)C(=O)NO
log10(IC50): 1.85
--
compound: CO[C@H](C(=O)NO)[C@@H](CC(C)C)C(=O)N[C@H](C(=O)NC(c1ccccc1)c1ccccc1)C(C)(C)O
log10(IC50): 0.95
--
compound: CC(C)(C)[C@H](NC(=O)[C@H](C/C=C/c1ccccc1)[C@H](O)C(=O)NO)C(=O)NC(c1ccccc1)c1ccccc1
log10(IC50): 2.70
--
compound: C=CC[C@H](C(=O)NO)[C@@H](CC(C)C)C(=O)N[C@H](C(=O)NC)C(C)(C)C [Comparator 2, reference compound]
log10(IC50): 1.30
--
compound: CC(C)C[C@@H](C(=O)N[C@H](C(=O)NC(c1ccccc1)c1ccc(F)cc1)C(C)(C)C)[C@H](O)C(=O)NO (stereo partly shown)
log10(IC50): 0.95
--
compound: C=CC[C@H](C(=O)NO)[C@@H](CC(C)C)C(=O)N[C@H](C(=O)NC(c1ccccc1)c1ccccc1)C(C)(C)C
log10(IC50): 1.48
--
compound: CC(C)C[C@@H](C(=O)N[C@H](C(=O)NC(c1ccccc1)c1ccccc1)C(C)(C)O)[C@H](O)C(=O)NO
log10(IC50): 1.18
